- System: 616215-338-R-J1-PDC spheroids with HUVEC/MSC, viability
- protocol.description: Anticancer human tumor 616215-338-R-J1-PDC patient-derived colon adenocarcinoma cell line growth inhibition [PI3K]
- run.parameters: second compound 0.0316 µM; first compound 3.16 µM; hits give low values
assay.endpoint: viability, T/C (%)
Note: unit % is implicit; provide only the numeric part.

The examples below pair each entry with its known result.
What viability, T/C value was documented for this molecule, Cn1ncc(Cl)c1-c1cc(C(=O)NC(CN)Cc2cccc(F)c2)sc1Cl (stereo unspecified) + COc1c(OCCCN2CCOCC2)ccc2c3n(c(=NC(=O)c4cnc(N)nc4)nc12)CCN3 ?
43.9

What viability, T/C value was documented for this molecule, C#Cc1c(F)ccc2cc(O)cc(-c3ncc4c(N5CC6CCC(C5)N6)nc(OCC56CCCN5CC(F)C6)nc4c3F)c12 (stereo unspecified) + CC(Nc1ncnc2nc[nH]c12)c1cc2cccc(Cl)c2c(=O)n1-c1ccccc1 ?
109

What viability, T/C value was documented for this molecule, Cn1ncc(Cl)c1-c1cc(C(=O)NC(CN)Cc2cccc(F)c2)sc1Cl (stereo unspecified) + CC(Nc1ncnc2nc[nH]c12)c1cc2cccc(Cl)c2c(=O)n1-c1ccccc1 ?
75.7

What viability, T/C value was documented for this molecule, CC1(C)CCC(Nc2ncc(C(F)(F)F)c(-c3c[nH]c4c(P(C)(C)=O)c(C#N)ccc34)n2)CN1 (stereo unspecified) + Cc1nc(NC(=O)N2CCCC2C(N)=O)sc1-c1ccnc(C(C)(C)C(F)(F)F)c1 ?
69.7

What viability, T/C value was documented for this molecule, CC1(C)CCC(Nc2ncc(C(F)(F)F)c(-c3c[nH]c4c(P(C)(C)=O)c(C#N)ccc34)n2)CN1 (stereo unspecified) + CC(Nc1ccc2c(c1)OCCn1cc(N3C(=O)OCC3C(F)F)nc1-2)C(N)=O ?
55.4

We now examine a further molecule.
What viability, T/C value was documented for this molecule, CC(C)NCC(C(=O)N1CCN(c2ncnc3c2C(C)CC3O)CC1)c1ccc(Cl)cc1 (stereo unspecified) + Cc1nc(NC(=O)N2CCCC2C(N)=O)sc1-c1ccnc(C(C)(C)C(F)(F)F)c1 ?
91.8

* * *

- Tested on: 616215-338-R-J1-PDC spheroids with HUVEC/MSC, viability
- protocol.description: Anticancer human tumor 616215-338-R-J1-PDC cell line growth inhibition [PI3K];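 further: spheroids exposed to agents for seven days before the viability read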
- run.parameters: second compound 0.01 µM; first compound 0.1 µM; hits give low values
assay.endpoint: viability, T/C (%)
Note: unit % is implicit; provide only the numeric part.

The examples below pair each entry with its known result.
What viability, T/C value was documented for this molecule, CC(Cn1ccc(-c2ccc(C#N)c(Cl)c2)n1)NC(=O)c1cc(C(C)O)[nH]n1 (stereo unspecified) + COc1c(OCCCN2CCOCC2)ccc2c3n(c(=NC(=O)c4cnc(N)nc4)nc12)CCN3 ?
86.7

What viability, T/C value was documented for this molecule, Cn1ncc(Cl)c1-c1cc(C(=O)NC(CN)Cc2cccc(F)c2)sc1Cl (stereo unspecified) + CC(Nc1ccc2c(c1)OCCn1cc(N3C(=O)OCC3C(F)F)nc1-2)C(N)=O ?
96

What viability, T/C value was documented for this molecule, C[C@@H](NC(=O)c1ncnc(N)c1Cl)c1ncc(C(=O)Nc2cc(C(F)(F)F)c(Cl)cn2)s1 + CC(Nc1ccc2c(c1)OCCn1cc(N3C(=O)OCC3C(F)F)nc1-2)C(N)=O ?
109

Further cases:
What viability, T/C value was documented for this molecule, CCN1CCN(Cc2ccc(Nc3ncc(F)c(-c4cc(F)c5nc(C)n(C(C)C)c5c4)n3)nc2)CC1 + COc1c(OCCCN2CCOCC2)ccc2c3n(c(=NC(=O)c4cnc(N)nc4)nc12)CCN3 ?
118

What viability, T/C value was documented for this molecule, Cn1nccc1Nc1nccc(-c2ccn(C(CO)c3ccc(Cl)c(F)c3)c(=O)c2)n1 (stereo unspecified) + CC(Nc1ccc2c(c1)OCCn1cc(N3C(=O)OCC3C(F)F)nc1-2)C(N)=O ?
97.6

What viability, T/C value was documented for this molecule, Cn1ncnc1[C@H]1c2n[nH]c(=O)c3cc(F)cc(c23)N[C@@H]1c1ccc(F)cc1 + CC(Nc1ccc2c(c1)OCCn1cc(N3C(=O)OCC3C(F)F)nc1-2)C(N)=O ?
90.5
